Each entry below carries its recorded cAMP EC50.
STUDY SYSTEM: T1, wild-type human PTH/PTHrP receptor (hP1R-WT) (human, UniProt Q03431 27-593)
T1 sequence (looked up): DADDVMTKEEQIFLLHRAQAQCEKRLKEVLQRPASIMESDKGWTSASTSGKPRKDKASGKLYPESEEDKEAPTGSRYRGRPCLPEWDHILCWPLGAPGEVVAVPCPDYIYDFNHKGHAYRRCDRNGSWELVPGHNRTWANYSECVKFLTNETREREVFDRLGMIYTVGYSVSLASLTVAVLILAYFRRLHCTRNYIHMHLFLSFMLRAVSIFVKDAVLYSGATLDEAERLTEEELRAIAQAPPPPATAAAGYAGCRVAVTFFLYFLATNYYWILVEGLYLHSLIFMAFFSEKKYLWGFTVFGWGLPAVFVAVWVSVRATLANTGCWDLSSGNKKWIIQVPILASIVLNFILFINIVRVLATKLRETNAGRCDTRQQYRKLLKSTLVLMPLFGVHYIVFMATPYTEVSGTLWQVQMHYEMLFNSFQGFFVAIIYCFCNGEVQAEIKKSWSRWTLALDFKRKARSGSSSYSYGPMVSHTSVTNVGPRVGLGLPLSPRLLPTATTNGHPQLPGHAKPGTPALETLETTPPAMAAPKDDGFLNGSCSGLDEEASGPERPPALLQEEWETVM
EXPERIMENT: cell-based or functional assay
Square brackets hold non-standard residues; d marks the D form. Ends that are not written are not given here. hArg = N=C(N)NCCCC[C@H](N)C(=O)O; Aib = CC(C)(N)C(=O)O

BINDER: AV[Aib]EIQLMHQ[hArg]AKW-NH2 (N-terminus assumed; SMILES CC[C@H](C)[C@H](NC(=O)[C@H](CCC(=O)O)NC(=O)C(C)(C)NC(=O)[C@@H](NC(=O)[C@H](C)N)C(C)C)C(=O)N[C@@H](CCC(N)=O)C(=O)N[C@@H](CC(C)C)C(=O)N[C@@H](CCSC)C(=O)N[C@@H](Cc1c[nH]cn1)C(=O)N[C@@H](CCC(N)=O)C(=O)N[C@@H](CCCCNC(=N)N)C(=O)N[C@@H](C)C(=O)N[C@@H](CCCCN)C(=O)N[C@@H](Cc1c[nH]c2ccccc12)C(N)=O, also called 624 Aib-3) [[Aib^3,M]PTH(1-14)]
INEQUALITY OPERATOR: =
cAMP EC50 (nM): 13

BINDER: AVSEIQLXHNLGKHLASVERXQWLRKKLQDVHNY (Nle (norleucine) at 8 and 21; C-terminal amide, also called 92 PTH(1-34); 92.5 PTH(1-34)) [[Nle^8,21,Tyr^34]PTH(1-34)amide (rat sequence)]
INEQUALITY OPERATOR: =
cAMP EC50 (nM): 2.5

BINDER: [Aib]V[Aib]EIQLMH-NH2 (N-terminus assumed; SMILES CC[C@H](C)[C@H](NC(=O)[C@H](CCC(=O)O)NC(=O)C(C)(C)NC(=O)[C@@H](NC(=O)C(C)(C)N)C(C)C)C(=O)N[C@@H](CCC(N)=O)C(=O)N[C@@H](CC(C)C)C(=O)N[C@@H](CCSC)C(=O)N[C@@H](Cc1c[nH]cn1)C(N)=O) [[Aib^1,3]PTH(1-9)]
INEQUALITY OPERATOR: >
cAMP EC50 (nM): 10000
